Target: T1, HeV-G
T1 chain: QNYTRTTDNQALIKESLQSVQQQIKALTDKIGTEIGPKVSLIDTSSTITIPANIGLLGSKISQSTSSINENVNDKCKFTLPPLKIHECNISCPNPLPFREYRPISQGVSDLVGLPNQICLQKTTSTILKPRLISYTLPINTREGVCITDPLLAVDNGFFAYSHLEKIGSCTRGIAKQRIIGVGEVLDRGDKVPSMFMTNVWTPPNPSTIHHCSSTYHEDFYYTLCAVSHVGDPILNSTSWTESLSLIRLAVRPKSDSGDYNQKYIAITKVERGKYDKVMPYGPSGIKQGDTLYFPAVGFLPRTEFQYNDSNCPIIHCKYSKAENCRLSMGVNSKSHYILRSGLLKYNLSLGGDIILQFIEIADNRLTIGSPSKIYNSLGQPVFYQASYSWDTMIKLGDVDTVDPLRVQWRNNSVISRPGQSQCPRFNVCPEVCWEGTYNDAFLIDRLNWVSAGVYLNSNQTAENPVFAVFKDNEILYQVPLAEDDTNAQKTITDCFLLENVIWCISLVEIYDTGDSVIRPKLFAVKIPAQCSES
endpoint-name: EC50 (pM)
The reply should be a number in pM, with the unit left off.

## Input Give EC50 for the following binder: HENV-98 (antibody, V domains shown) VH: AVQLVESGGGLVQPGGSLRLSCEASGFTFSGYWMSWVRQAPGKGLEWVANIKGDGSEKYYVDSVKGRFTIFRDNAKTSLYLQVNSLRAEDTAVYYCARERHFLAARPGYYIYSGLDVWGPGTTVTVSS VL: DIQMTQSPSSLSASVGDRVTITCRASQSIDNYLNWYQQKPGKVPKLLIYAASNLQSGVPSKFSGGGSGTDFTLTISSLQPDDFATYYCQQSFGTPRTFGQGTRVEIK
## Output 434

## Input Provide measured EC50 value, entry: HENV-170 (antibody, V domains shown) VH: EVQLLESGGGLVQPGGSLRLSCAASGFTFSSYTMSWVRQAPGKGLEWVSGISGSGGNTYYAGSVKGRFTISRDNSKNTLYLQMNSLRAEDTAVYYCAKDGYTGQQLMRRGPWWFDPWGQGTLVTVSS VL: SYVLTQPPSVSVAPGQTARITCGGNNIGSKSVHWYQQKPGQAPVLVVYDDSDRPSGIPERFSGSKSGNTATLTISRVEAGDEADYYCQVWDSSSDHVVFGGGTKLTVL
## Output 518
